Data origin: paper PMC10056986

Target: H2 (Homo sapiens)
Sequence (P25021 whole entry): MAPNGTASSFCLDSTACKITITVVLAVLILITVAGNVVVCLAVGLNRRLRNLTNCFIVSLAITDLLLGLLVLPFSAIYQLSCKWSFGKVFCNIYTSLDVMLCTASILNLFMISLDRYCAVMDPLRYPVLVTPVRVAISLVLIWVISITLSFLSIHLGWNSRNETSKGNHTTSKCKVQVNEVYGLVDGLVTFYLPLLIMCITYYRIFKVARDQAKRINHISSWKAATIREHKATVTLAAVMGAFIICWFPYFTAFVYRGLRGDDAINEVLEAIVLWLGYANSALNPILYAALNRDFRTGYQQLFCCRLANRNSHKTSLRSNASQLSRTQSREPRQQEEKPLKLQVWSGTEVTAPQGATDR
Assay: cell-based
pEC50: −log10 of the molar value.
reported_endpoint: pEC50

// query Note down pEC50 recorded for O=C(O)[C@H]1C2CCC(CC2)[C@@H]1Nc1nc(-c2n[nH]c3ncc(F)cc23)nc(C2CC2)c1F
// result < 4.92

----------
Target: MAPKAPK2 (Homo sapiens)
Sequence (P49137 whole entry): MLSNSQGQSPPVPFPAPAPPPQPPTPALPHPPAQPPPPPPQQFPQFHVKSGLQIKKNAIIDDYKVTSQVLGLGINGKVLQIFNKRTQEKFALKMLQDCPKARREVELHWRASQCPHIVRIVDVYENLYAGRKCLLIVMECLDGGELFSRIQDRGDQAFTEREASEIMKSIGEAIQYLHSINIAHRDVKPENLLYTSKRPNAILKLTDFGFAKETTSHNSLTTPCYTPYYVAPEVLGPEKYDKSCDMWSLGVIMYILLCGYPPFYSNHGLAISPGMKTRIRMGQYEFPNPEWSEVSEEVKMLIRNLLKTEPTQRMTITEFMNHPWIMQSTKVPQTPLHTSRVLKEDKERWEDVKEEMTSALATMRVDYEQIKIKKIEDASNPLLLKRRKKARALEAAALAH
Below is a list of entries, each paired with its recorded IC50 value.

// query // output IC50; input O=C(O)[C@H]1C2CCC(CC2)[C@@H]1Nc1nc(-c2c[nH]c3ncc(F)cc23)ncc1F [VX-787, reference compound] ; system MAPKAPK2 (Homo sapiens)
// result > 10 µM

// query Look up and report IC50, with MAPKAPK2 (Homo sapiens) as system, for O=C(O)[C@H]1C2CCC(CC2)[C@@H]1Nc1nc(-c2n[nH]c3ncc(F)cc23)nc(C2CC2)c1F [ZSP1273]
// result > 10 µM
